Assay: folding stability dG unfold from chymotrypsin proteolysis; higher = more stable
Class Y: folding stability dG unfold at least 0.5 kcal/mol. Class N: folding stability dG unfold below 0.5 kcal/mol.

item_sequence	label_class
SAGGSAGGWPLMVEYTPPGDGKTQTYPIPIKGPLSEIKDQIKENMPPGFREVEISPANIEKILKSAGGSAGG [r6_889_TrROS]	N
SGMTVTPVTHPNGQTLTLTFDPETGTVTVNRSPAISLEEVKAALEALIPSDRSVTVSTLPDGTAAVTLTASA [r9_933_JUSTAS]	Y
SLEELAKAIAEKLGLPVEDVEVRVEKEVDEETGEERLRVTVLIKVDGKTYLIEIDLETGEIVEIKPLEDLSA [r9_1219_TrROS_Hall]	Y
SAGGSALENLEENEYIVKIEIEKKNKKKIEIVIAGKPEKIKEIEKELKKKGFKILKIEPKKVKDVLSAGGSA [r15_640_TrMRF]	Y
GEFVSVESVERLPDGTLVVKIKYKPPSPDTPVTVTVSHPDSSVTFTMDPTSSTITVTVPPSVSDVSVTVVGS [r1_428_JUSTAS]	Y
SAGGSAGGSAGGKDPYLALKTVRVRLVRDYLLGDKPVKTELIEEADVPVLIVFEPEELLSAGGSAGGSAGGS [r10_492_TrMRF]	Y

Source listed as the supplement of paper PMC12764529.
